# SYSTEM_UNDER_TEST: cynomolgus IL-36R (on cells, allelic variant not stated) (cynomolgus monkey), A0A2K5
# Sequence (chain, as listed by the source mutant): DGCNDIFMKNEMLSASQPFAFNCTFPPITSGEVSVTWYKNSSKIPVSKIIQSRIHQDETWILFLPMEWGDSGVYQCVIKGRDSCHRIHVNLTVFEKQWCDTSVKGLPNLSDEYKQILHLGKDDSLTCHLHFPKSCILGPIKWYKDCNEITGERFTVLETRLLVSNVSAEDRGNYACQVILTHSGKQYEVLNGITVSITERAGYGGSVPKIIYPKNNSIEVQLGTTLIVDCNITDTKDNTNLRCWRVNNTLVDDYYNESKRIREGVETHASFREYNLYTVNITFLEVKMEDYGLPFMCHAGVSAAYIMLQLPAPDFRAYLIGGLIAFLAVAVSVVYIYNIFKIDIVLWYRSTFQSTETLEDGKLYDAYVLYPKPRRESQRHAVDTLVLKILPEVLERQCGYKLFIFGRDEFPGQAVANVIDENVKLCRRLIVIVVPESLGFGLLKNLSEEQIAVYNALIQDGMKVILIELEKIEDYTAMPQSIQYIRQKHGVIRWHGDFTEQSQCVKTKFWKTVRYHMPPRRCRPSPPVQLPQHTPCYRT
# METHOD: cell-based or functional assay
In this section we review reported EC50 (nM), HEK cyno IL-36R IL-8 luciferase reporter assay, 300 ng/ml cIL-36γ values for a set of binders.
Numeric only. Scale: nM

Hzd 5D3 (APE6155) (antibody, V domains shown, also called APE6917; APE06155) VH: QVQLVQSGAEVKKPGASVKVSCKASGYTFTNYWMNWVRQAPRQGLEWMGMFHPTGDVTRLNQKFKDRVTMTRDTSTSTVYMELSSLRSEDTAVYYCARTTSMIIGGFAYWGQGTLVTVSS VL: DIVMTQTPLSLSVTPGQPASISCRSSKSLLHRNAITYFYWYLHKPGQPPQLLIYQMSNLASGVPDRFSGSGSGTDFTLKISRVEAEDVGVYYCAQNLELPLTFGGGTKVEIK | 0.31

Then this binder:
-- ask Could you please provide reported EC50 (nM), HEK cyno IL-36R IL-8 luciferase reporter assay, 300 ng/ml cIL-36γ for Hzd 5D3 (APE6060) (antibody, V domains shown, also called 5D3 Humanized) VH: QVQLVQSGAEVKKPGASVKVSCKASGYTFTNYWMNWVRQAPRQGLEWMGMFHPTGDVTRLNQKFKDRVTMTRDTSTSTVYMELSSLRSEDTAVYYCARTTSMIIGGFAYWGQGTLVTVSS VL: DIVMTQTPLSLSVTPGQPASISCRSSKSLLHRNAITYFYWYLQKPGQPPQLLIYQMSNLASGVPDRFSGSGSGTDFTLKISRVEAEDVGVYYCAQNLELPLTFGGGTKVEIK ? Thanks!
-- reply 0.29
